target: human RXFP1 (Homo sapiens); construct: expressed in transfected cells; experiment: RXFP1 cAMP assay (hRXFP1 HEK293 cAMP assay, HTRF); assay type: cell-based; conditions: HEK293 cells stably expressing human RXFP1, 30 min at room temperature, read-out: cAMP hRXFP1 HEK293 Assay EC50
measurementType: EC50 (nM)
Entry rule: numbers only, all in nM.

# example entries with known answers
- compound: "COc1ccc(-c2cc(C(NC(C)=O)C(=O)O)ccc2F)cc1C(=O)N[C@@H]1C2CCC(/C2=C/C2CC2)[C@@H]1C(=O)Nc1ccc(F)c(C(F)(F)F)c1 (stereo partly drawn) [compound 184]"
  measurementType: "EC50"
  quantitativeResult: 11
- compound: "COc1ccc(C2CCCN2)cc1C(=O)N[C@@H]1C2CCC(C2=CC2CC2)[C@@H]1C(=O)Nc1ccc(F)c(C(F)(F)F)c1 (stereo partly drawn) [compound 720]"
  measurementType: "EC50"
  quantitativeResult: 3140

Quote EC50 reported for COc1ccc(-c2ccncc2OC)cc1C(=O)N[C@H]1[C@@H](C(=O)Nc2ccc(F)c(C(F)(F)F)c2)[C@H]2CC[C@@H]1C2=C(C)C [compound 89] please.
330

----------
Target: human RXFP1 (Homo sapiens, UniProt Q9HBX9)
Construct: expressed in transfected cells
Sequence (Q9HBX9 1-757): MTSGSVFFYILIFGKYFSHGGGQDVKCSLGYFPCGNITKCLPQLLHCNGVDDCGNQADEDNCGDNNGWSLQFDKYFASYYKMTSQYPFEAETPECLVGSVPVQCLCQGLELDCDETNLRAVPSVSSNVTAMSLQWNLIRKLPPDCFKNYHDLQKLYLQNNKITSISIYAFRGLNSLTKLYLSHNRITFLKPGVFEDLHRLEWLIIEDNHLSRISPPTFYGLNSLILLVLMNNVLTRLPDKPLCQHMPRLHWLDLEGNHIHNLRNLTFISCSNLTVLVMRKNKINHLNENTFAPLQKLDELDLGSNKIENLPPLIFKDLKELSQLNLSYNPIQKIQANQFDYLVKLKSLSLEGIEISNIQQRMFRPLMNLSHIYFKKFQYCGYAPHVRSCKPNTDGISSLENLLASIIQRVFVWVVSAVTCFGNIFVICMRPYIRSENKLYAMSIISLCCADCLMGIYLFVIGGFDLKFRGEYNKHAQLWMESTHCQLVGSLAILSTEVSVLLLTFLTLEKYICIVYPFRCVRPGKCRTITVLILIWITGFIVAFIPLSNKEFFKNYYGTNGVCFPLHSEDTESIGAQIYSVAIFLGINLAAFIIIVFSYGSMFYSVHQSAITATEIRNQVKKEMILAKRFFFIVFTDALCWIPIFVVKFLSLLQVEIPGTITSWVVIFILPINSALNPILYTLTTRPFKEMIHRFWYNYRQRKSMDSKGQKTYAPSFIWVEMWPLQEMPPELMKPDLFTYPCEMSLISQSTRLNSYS
Experiment: RXFP1 cAMP assay (hRXFP1 HEK293 cAMP assay, HTRF)
Assay type: cell-based
Settings: HEK293 cells stably expressing human RXFP1, 30 min at room temperature, read-out: cAMP hRXFP1 HEK293 Assay EC50
Criterion: EC50 strictly less than 40 nM. Met: 1. Not met: 0.

Consider the worked cases shown below.
- compound: "COc1ccc(C2=NOC3CN(C(=O)OC(C)(C)C)CC23)cc1C(=O)N[C@@H]1C2CCC(/C2=C/C2CC2)[C@@H]1C(=O)Nc1ccc(F)c(C(F)(F)F)c1 (some centres unmarked) [compound 435]"
  systemName: "human RXFP1 (Homo sapiens, UniProt Q9HBX9)"
  discreteLabel: 0
- compound: "COc1ccc(C2CCCN2C(=O)CCO)cc1C(=O)N[C@@H]1C2CCC(C2=CC2CC2)[C@@H]1C(=O)Nc1ccc(F)c(C(F)(F)F)c1 (some centres unmarked) [compound 667]"
  systemName: "human RXFP1 (Homo sapiens, UniProt Q9HBX9)"
  discreteLabel: 0
- compound: "COc1ccc(C2=NOC(CO)C2CO)cc1C(=O)N[C@H]1[C@@H](C(=O)Nc2ccc(F)c(C(F)(F)F)c2)[C@H]2CC[C@@H]1/C2=C\\C1CC1 (single isomer, unassigned) [compound 481]"
  systemName: "human RXFP1 (Homo sapiens, UniProt Q9HBX9)"
  discreteLabel: 1

Input COc1ccc(C2=NO[C@H]3C[C@H](CO)CN23)cc1C(=O)N[C@H]1[C@@H](C(=O)Nc2ccc(F)c(C(F)(F)F)c2)[C@H]2CC[C@@H]1/C2=C\CCC(F)(F)F [compound 818] ; condition: EC50 strictly below 40 nM. Does it hold?
1

Consider COc1ccc(C2=NO[C@H]3COC[C@@H]23)cc1C(=O)N[C@H]1[C@@H](C(=O)Nc2ccc(F)c(C(F)(F)F)c2)[C@H]2CC[C@@H]1/C2=C\CCC1CC1 [compound 839] . Does its EC50 lie strictly below 40 nM?
1

----------
In this section, each of the molecules is paired with its reported EC50.
Molecular target: human RXFP1 (Homo sapiens)
Construct: expressed in transfected cells
Sequence (Q9HBX9 1-757): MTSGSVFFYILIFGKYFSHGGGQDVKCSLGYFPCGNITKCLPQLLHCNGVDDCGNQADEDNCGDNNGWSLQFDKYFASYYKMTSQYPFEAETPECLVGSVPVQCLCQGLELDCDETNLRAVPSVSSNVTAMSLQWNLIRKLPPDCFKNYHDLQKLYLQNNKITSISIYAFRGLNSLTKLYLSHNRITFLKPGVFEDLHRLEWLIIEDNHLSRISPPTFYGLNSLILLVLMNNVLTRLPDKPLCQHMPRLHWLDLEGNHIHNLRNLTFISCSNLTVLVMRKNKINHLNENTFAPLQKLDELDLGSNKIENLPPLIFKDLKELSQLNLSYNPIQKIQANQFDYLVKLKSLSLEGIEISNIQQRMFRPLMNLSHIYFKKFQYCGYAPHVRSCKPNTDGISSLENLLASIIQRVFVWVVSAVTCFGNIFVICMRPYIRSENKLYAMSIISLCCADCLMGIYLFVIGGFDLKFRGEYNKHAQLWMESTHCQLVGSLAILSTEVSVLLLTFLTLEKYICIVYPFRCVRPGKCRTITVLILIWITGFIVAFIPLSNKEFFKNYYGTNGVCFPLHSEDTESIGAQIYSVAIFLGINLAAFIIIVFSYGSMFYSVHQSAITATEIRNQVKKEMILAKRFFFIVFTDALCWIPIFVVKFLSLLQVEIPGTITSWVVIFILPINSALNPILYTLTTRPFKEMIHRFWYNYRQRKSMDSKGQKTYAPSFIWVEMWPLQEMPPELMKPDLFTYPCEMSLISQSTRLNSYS
Assay: RXFP1 cAMP assay (hRXFP1 HEK293 cAMP assay, HTRF)
Assay type: cell-based
Details: HEK293 cells stably expressing human RXFP1, 30 min at room temperature, read-out: cAMP hRXFP1 HEK293 Assay EC50
Answer in nM, number only, no unit symbol.

- molecule: "COc1ccc(-c2cc(C(NC(=O)Cc3ccccc3)C(=O)O)ccc2F)cc1C(=O)N[C@@H]1C2CCC(/C2=C/C(F)(F)F)[C@@H]1C(=O)Nc1ccc(F)c(C(F)(F)F)c1 (some centres unmarked)"
  EC50 / nM: 1
- molecule: "COC(=O)C(NC(C)=O)c1ccc(F)c(-c2ccc(OC)c(C(=O)N[C@@H]3C4CCC(/C4=C/C4CC4)[C@@H]3C(=O)Nc3ccc(F)c(C(F)(F)F)c3)c2)c1 (some centres unmarked)"
  EC50 / nM: 5
- molecule: "COc1ccc(C2=NOC3(CO)CCCC23)cc1C(=O)N[C@H]1[C@@H](C(=O)Nc2ccc(F)c(C(F)(F)F)c2)[C@H]2CC[C@@H]1/C2=C\\C1CC1 (single isomer, unassigned) [compound 616]"
  EC50 / nM: 141
- molecule: "COc1ccc(C2=NOC3CC(C(=O)O)CC23)cc1C(=O)N[C@H]1[C@@H](C(=O)Nc2ccc(F)c(C(F)(F)F)c2)[C@H]2CC[C@@H]1/C2=C\\C1CC1 (some centres unmarked)"
  EC50 / nM: 2.8

Return EC50 for the following molecule: COc1ccc(-c2ccc(N3CCOCC3)nc2)cc1C(=O)N[C@H]1[C@@H](C(=O)Nc2ccc(F)c(C(F)(F)F)c2)[C@H]2CC[C@@H]1C2=C(C)C
39

Write down EC50 measured for item COc1ccc(N2CCC(NC(=O)C3CCOCC3)C2)cc1C(=O)N[C@@H]1C2CCC(/C2=C/C(F)(F)F)[C@@H]1C(=O)Nc1ccc(F)c(C(F)(F)F)c1 (single isomer, unassigned) [compound 337]
2080

Supply recorded EC50 for COCc1ccccc1CNC(=O)[C@@H]1[C@H](NC(=O)c2cc(C3=NOC4COCC34)ccc2OC)[C@@H]2CC[C@H]1/C2=C/C1CC1 (some centres unmarked) here.
217

State its EC50: CCCC/C=C1\C2CCC1[C@H](C(=O)Nc1ccc(F)c(C(F)(F)F)c1)[C@@H]2NC(=O)c1cc(C2=NOC(CC(=O)O)C2)ccc1OC (some centres unmarked)
104
